# Test system: SNB-19
# Procedure Text: NCI tumour cell line growth inhibition, 48 h
Active and inactive are the calls of the source. Rule as the data show it: active = GI50 up to about 1.1 µM and inactive = higher.
Respond using exactly one of the listed classes: active, inactive

Reference set, count: 3
1. CC(CO)CCNc1ncnc2c1ncn2CCC(=O)O (stereo unspecified) ... inactive
2. c1ccc2c[n+](CCCC[n+]3ccc4ccccc4c3)ccc2c1 ... inactive
3. Cc1cccc(NC(=O)CC(=O)N2N=C(N(CCC#N)c3ccc(Cl)cc3)CC2c2ccccc2)c1 (stereo unspecified) ... inactive

Could you now consider this next compound?
# lookup: test call for "CC1(C)C=C(N2CCN(C3=CC(C)(C)NC(C)(C)C3)CC2)CC(C)(C)N1"
inactive
